# Test system: Liver microsomes
# EXPERIMENT_SUMMARY: Intrinsic clearance in rat liver microsome
# Format: ADME
PARAMETER: CL (mL/min/g)
Provide the reading as a plain figure in mL/min/g.

| SMILES_STR | CL (mL/min/g) |
| --- | --- |
| C[C@@H]1CN(Cc2ccc(-c3cccnc3C(=O)N3CCC(Nc4cccc(F)c4)CC3)cc2F)C[C@H](C)N1 | 12 |
| Cc1cc(CC(=O)N(C)Cc2ccccc2-c2ccc(CN3C[C@@H](C)N[C@@H](C)C3)cc2)on1 | 2.9 |
| CCN(CCc1ccccc1)C(=O)c1ccccc1-c1ccc(CN2C[C@@H](C)N[C@@H](C)C2)cc1 | 26 |
| C[C@@H]1CN(Cc2ccc(-n3ccnc3C(=O)N3CCC(Nc4cccc(F)c4)CC3)cc2)C[C@H](C)N1 | 4.1 |
| COc1cc(-c2cccnc2C(=O)N2CCC(Nc3ccc(F)cc3)CC2)ccc1CN1C[C@@H](C)N[C@@H](C)C1 | 5.9 |

Please examine the following record next.
Input line: CL for C[C@@H]1CN(Cc2ccc(-c3cccnc3C(=O)N3CCC(Nc4ccc(F)cc4)CC3)cc2F)C[C@H](C)N1 ?
Output line: 6.5
